The origin of these recorded values is patent US20190359693A1.

biological target: HA of H3N2 A/HK/1/68-MA (influenza A virus); test: cell-based or functional assay

binder: SD1017 (VHH) VHH: EVQLVESGGGLVQAGGSLRLSCAASGRTYAMAWFRQAPGKEREFVAHINALGTRAYYSDSVEGRFTISRDNAKNTGYLQMNSLEPEDTAVYVCAAGGQWRAAPVADAAQYDFWGQGTQVTVSS
VNA titer: > 1000 nM

binder: SD1014 (VHH, llama sdAb) VHH: EVQLVESGGGLVQAGGSLTLSCAASGRTYAMAWFRQAPGKEREFVAHINALGTRTYYSDSVKGRFTISRDNAKNTEYLQMNSLNPEDTAVYYCAAGGQWRAAPVADAAQYDFWGQGTQVTVSS
VNA titer: > 1000 nM

binder: SD1048 (VHH) VHH: EVQLVESGGGVVQPGGSLRLSCVASGRTSSMYSIGWFRQAPGKEREFVAVIGWYSGRTFYTDSMKGRFTISRDNARNTVYLQMNSLKPEDTAVYYCAAANGPLRLSNQADYWGQGTQVTVSS
VNA titer: 110 nM
